Hi there, I'd appreciate the recorded Retention_time for every entry that follows.
# METHOD: Permeability of compound assessed as retention time by PAMPA-BBB assay
# Assay type: ADME
One number for each entry, in min.

O=C(/C=C/c1ccc(O)c(O)c1)NCCc1ccc(O)cc1 | 24.08

Would you be so kind as to report Retention_time for each listed record?
1. O=C(NCCc1ccc(O)cc1)c1cc2cc(O)c(O)cc2c(-c2ccc(O)c(O)c2)c1C(=O)NCCc1ccc(O)cc1
2. COc1cc(/C=C/C(=O)NCCc2ccc(O)cc2)ccc1O [N-TRANS-FERULOYL TYRAMINE]
3. O=C(/C=C/c1ccc(O)cc1)NCCc1ccc(O)cc1 [N-P-COUMAROYL TYRAMINE]

[28.07, 28.42, 27.32]
